Origin of the recorded values: PubChem BioAssay AID624167

Test system: Rat fibroblasts (CREF)
Assay: Peg3 promoter luciferase inhibitors, potency, dose response, cell-based, HeLa, CREF/GAPDH counter-screen panel (AID 624167)
Details: CREF/GAPDH counter-screens, run 1, dose range 1, individual replicate IC50 per panel
Observation Type: IC50 (nM)

Molecule | Operator | Observed Value
C=CCn1c(C)cc(C(=O)CN2C(=O)c3ccccc3S2(=O)=O)c1C | = | 1680
CC(=O)NC(c1ccc(Cl)cc1)c1ccc2cccnc2c1O (stereo unspecified) | > | 100000
CCc1ccn2cc(-c3ccc4c(c3)OCO4)nc2c1 | = | 748
CC(=O)OC1(C)CC(C)C(=O)C(C(O)CC2CC(=O)NC(=O)C2)C1 (stereo unspecified) | < | 200
O=C(N/N=C/c1ccc(Cl)c([N+](=O)[O-])c1)c1cc(-c2ccc3c4c(cccc24)CC3)n[nH]1 | > | 100000
CN(C)c1ccc(/C=C(\C#N)c2ccccn2)cc1 | = | 531
Cc1ccccc1-c1nc(-c2ccccn2)no1 | = | 1080
O=C(/C=C/Nc1ccccc1Br)c1ccccn1 | = | 414
Cc1nn(-c2nc3ccccc3[nH]2)c(=O)c2ccccc12 | = | 351
COc1ccc(/C=C2/CCCC(CN(C)C)C2=O)cc1 (stereo unspecified) | = | 23600
CS(=O)(=O)Nc1cccc(NC(=O)C2Cc3c(-c4cccc(F)c4)ccnc3O2)c1 (stereo unspecified) | > | 100000

* * *

Test system: PEG-3
Experiment: Peg3 promoter luciferase inhibitors, potency, dose response, cell-based, HeLa, CREF/GAPDH counter-screen panel (AID 624167)
Conditions: HeLa PEG-Prom luciferase reporter, overnight, CREF/GAPDH counter-screens, run 1, dose range 1, individual replicate IC50 per panel
pIC50: −log10 of the molar value.
Reported pIC50 values follow for various compounds
Observation Type: pIC50

Compound | Observed Value
O=C(O)c1cccc(COc2ccccc2Cl)c1 | 6.17
COc1ccc(-c2cc(C(=O)N(C)Cc3ccc(OC)c(OC)c3OC)c3ccccc3n2)cc1OC | 4.87
Cc1ccccc1CN1Cc2cnnn2-c2ccccc2C1C#N (stereo unspecified) | 4.81
Cc1ccc(-n2cc(-c3ccccc3)c3c(N4CCOCC4)ncnc32)cc1 | 4.97
CCCCCCSc1cc(-c2nc3ccc(C)cn3c2NCCCC)ccc1OC | 4.67
O=[N+]([O-])c1cc(F)c(N2CCCCCC2)cc1N1CCNCC1 | 4.72

* * *

Test system: PEG-3
Assay: Peg3 promoter luciferase inhibitors, potency, dose response, cell-based, HeLa, CREF/GAPDH counter-screen panel (AID 624167)
Details: HeLa PEG-Prom luciferase reporter, overnight, CREF/GAPDH counter-screens, run 1, dose range 1, individual replicate IC50 per panel
pIC50: −log10 of the molar value.
Observation Type: pIC50

Compound | Observation Type | Operator | Observed Value
CC(=O)Nc1ccc(S(=O)(=O)N(Cc2cccnc2)Cc2cc3ccccc3[nH]c2=O)cc1 | pIC50 | < | 4.00
C=Cc1cc(OC)c2c(c1)c(=O)oc1c2cc(OC)c2c(O)ccc(C3OC(C)C(O)C(C)(O)C3O)c21 (stereo unspecified) | pIC50 | = | 5.66
Cc1cc(/C=N/Nc2ncnc(N)c2[N+](=O)[O-])c(C)n1-c1ccccc1 | pIC50 | = | 5.01
COCCn1c(C)cc(C(=O)COC(=O)c2ccccc2Br)c1C | pIC50 | = | 4.49
COC(=O)c1ccccc1-c1ccc(/C=N/Nc2nc(N3CCCC3)nc(N3CCCC3)n2)o1 | pIC50 | = | 4.57
CC(C)N1CCc2c(sc(NC(=O)c3cc4cc([N+](=O)[O-])ccc4s3)c2C(N)=O)C1 | pIC50 | = | 4.65
CN(C)c1ccc(/C=C2\SC(=O)N(CCc3nnc(N)s3)C2=O)cc1 | pIC50 | = | 5.48
CCC(=O)NC(c1cccs1)c1cc([N+](=O)[O-])c2cccnc2c1O (stereo unspecified) | pIC50 | = | 4.91
COc1cc(/C=C/c2ccc3cccc(O)c3n2)ccc1O | pIC50 | < | 4.00
CCCC(=O)NC(c1ccc(C)cc1)c1ccc2cccnc2c1O (stereo unspecified) | pIC50 | = | 5.33
CC(=O)OC(C)(C)/C=C/C(=O)C(C)(O)C1[C@H](O)C[C@@]2(C)C3CC=C4C(CC[C@@H](O)C4(C)C)[C@]3(CO)C(=O)C[C@]12C (stereo partly specified) | pIC50 | = | 4.33
CN(O)C(=S)c1ccccc1 | pIC50 | = | 4.99
CCOc1ccc(-c2ccc(SC)nn2)cc1 | pIC50 | = | 5.54
O=C1C=CC(=O)N1c1ccc(-c2nc3ccccc3o2)cc1 | pIC50 | = | 4.95
CC(=O)c1ccc(Nc2cc(C)nc3ccc(C)cc23)cc1 | pIC50 | = | 4.66
CCn1nc(C)cc1-c1nnc(Sc2ncc([N+](=O)[O-])s2)n1C | pIC50 | = | 5.06
C/C(=N\NC(=O)c1cc(C2CC2)nc2ccccc12)c1ccc(O)cc1O | pIC50 | = | 5.51
CCN(CC)C(=O)Cn1cc(/C=C2\C(=O)NC(=O)N(c3ccccc3F)C2=O)c2ccccc21 | pIC50 | = | 4.83
CCC(=C(c1ccc(OC)cc1)c1ccc(OC)cc1)c1cn(CC(O)CN2CCN(C)CC2)c2ccccc12 (stereo unspecified) | pIC50 | = | 4.72
c1cncc(-c2nc(NCC3COc4ccccc4O3)c3ccccc3n2)c1 (stereo unspecified) | pIC50 | = | 4.70
COc1ccc(OCc2cccc(C(=O)O)c2)cc1 | pIC50 | = | 6.58
O=C(Nc1ccccn1)c1cc2ccccc2o1 | pIC50 | = | 5.30
CC(=O)OCCNc1cc(SCc2ccco2)c2nonc2c1[N+](=O)[O-] | pIC50 | = | 4.57
CCN(CCN(C)C)C(=O)C1CCN(S(=O)(=O)c2c(C)noc2/C=C/c2ccccc2F)CC1 | pIC50 | = | 4.55
CN1CCC(N(C)S(=O)(=O)c2ccc(NC(=O)COc3ccc(Br)cc3Cl)cc2)CC1 | pIC50 | = | 4.64
C=CCc1cccc(/C=N/NC(=O)C(C)Nc2cccc(C)c2)c1O (stereo unspecified) | pIC50 | = | 4.91
CN(C)CCNc1ncnc2c1sc1nc(N3CCOCC3)c3c(c12)CC(C)(C)SC3 | pIC50 | = | 4.74
C=C(C)Cn1c(SCC(=O)N/N=C/c2c(O)ccc3ccccc23)nc2ccccc2c1=O | pIC50 | < | 4.00
CCCc1nc2oc3c(NCCCN(C)C)ncnc3c2c2c1CCCC2 | pIC50 | = | 4.71
Cc1cccc(N=C2Sc3nc4c(C)c(C)ccc4cc3CN2CCN2CCOCC2)c1 | pIC50 | = | 4.53
COc1ccc(NS(=O)(=O)c2ccc3ccccc3c2)c2ncccc12 | pIC50 | = | 4.87
CN(C)CCCN(C(=O)c1ccc(S(=O)(=O)N2CCc3ccccc3C2)cc1)c1nc2ccc(F)cc2s1 | pIC50 | = | 4.95
Cc1nc(N2CCN(c3ccccc3O)CC2)c2c(-c3ccccc3)csc2n1 | pIC50 | = | 4.54
O=C(Nc1ccc(-c2nc3ccccc3o2)cc1)c1ccc(N2CCOCC2)c([N+](=O)[O-])c1 | pIC50 | < | 4.00
Cc1cccc2c1-c1sc(C(=O)NCCCN3CCCC(C)C3)cc1CO2 (stereo unspecified) | pIC50 | = | 4.76
COc1ccc2sc3cccc(NCCN(C)C)c3c(=O)c2c1 | pIC50 | = | 4.67
CN(CC(=O)Nc1ccc(Cl)c(C(F)(F)F)c1)C(=O)c1cc(-c2ccncc2)nc2ccccc12 | pIC50 | = | 4.79
Cc1ccc(OCC(=O)c2cc(C)n(-c3ccccc3)c2C)c([N+](=O)[O-])n1 | pIC50 | = | 6.16
COc1ccc(-n2c(/C=C/c3ccc(O)c(OC)c3)nc3ccccc3c2=O)cc1 | pIC50 | = | 4.80
COc1ccccc1N(C(=O)CCl)c1cn(C(C)=O)c2ccccc12 | pIC50 | = | 4.62
Cc1ccc(C(=O)N(CCCN(C)C)c2nc3ccc(Cl)cc3s2)cc1C | pIC50 | = | 4.72

* * *

Target: UniProt Q6IN02
Sequence (Q6IN02 whole entry, looked up): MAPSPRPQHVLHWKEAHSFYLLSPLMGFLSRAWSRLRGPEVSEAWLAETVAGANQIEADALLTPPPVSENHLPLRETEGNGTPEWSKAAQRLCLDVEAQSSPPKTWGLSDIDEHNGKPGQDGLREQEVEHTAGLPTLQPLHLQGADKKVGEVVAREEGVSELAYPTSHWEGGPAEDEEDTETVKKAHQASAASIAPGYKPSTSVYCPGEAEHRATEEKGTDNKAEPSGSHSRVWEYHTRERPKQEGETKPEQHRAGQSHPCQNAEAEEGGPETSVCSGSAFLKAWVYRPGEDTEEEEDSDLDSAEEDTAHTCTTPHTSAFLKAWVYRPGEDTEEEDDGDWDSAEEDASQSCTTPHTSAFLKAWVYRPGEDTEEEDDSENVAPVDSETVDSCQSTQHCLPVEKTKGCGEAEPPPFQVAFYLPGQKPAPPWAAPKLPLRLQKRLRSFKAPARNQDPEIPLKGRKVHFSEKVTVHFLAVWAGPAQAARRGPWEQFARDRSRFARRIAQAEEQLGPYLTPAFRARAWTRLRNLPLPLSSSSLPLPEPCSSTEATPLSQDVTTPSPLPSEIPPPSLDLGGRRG
Assay: Peg3 promoter luciferase inhibitors, potency, dose response, cell-based, HeLa, CREF/GAPDH counter-screen panel (AID 624167)
Conditions: HeLa PEG-Prom luciferase reporter, overnight, CREF/GAPDH counter-screens, mean of runs
Activity calls are given as the source filed them.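 Rule for the calls: active = mean IC50 for reducing PEG3 promoter reporter signal at or below a set limit, with IC50 above the limit in both counter screens; inactive = the rest, including counter screen hits.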
Reported IC50 values follow for various compounds

Compound | IC50
COc1cccc(-c2nnc3n2N=C(C(C)(C)C)CS3)c1 | 17.8 µM
O=C(Nc1ccc(-c2cn3ccsc3n2)cc1)c1ccc(F)c(S(=O)(=O)N2CCOCC2)c1 | > 100 µM (inactive)
COc1ccc2c(c1)c(=Cc1ccc(N(C)C)cc1)c1cc(-c3ccccc3)[n+](C)n12 | 2.27 µM
Nc1nc(CCl)nc(Nc2cccc3ccccc23)n1 | > 100 µM (inactive)
O=C(NNC(=O)c1cccnc1SCc1cccc([N+](=O)[O-])c1)c1ccccn1 | 3.6 µM
CCN(CC)S(=O)(=O)c1cccc(C(=O)N/N=C(\C)c2ccc(O)cc2O)c1 | 2.05 µM
Cc1ccc2nc(-c3ccc(Br)cc3)cn2c1 | 6.1 µM
O=c1oc2ccccc2cc1-c1cn2ccccc2n1 | 2.74 µM
CN(C)c1ccc(C(C(=O)NCc2ccccc2)N(Cc2ccco2)C(=O)c2snc(C(N)=O)c2N)cc1 (stereo not given) | > 100 µM (inactive)
